target: T1, M6; experiment: scFv-phage ELISA
T1 construct: also called PD1 mutant M6
measured_endpoint: OD490
Answer as a number with no unit attached.

binder	OD490
PD1-44B5 (antibody, V domains shown, scFv-phage in the screening ELISA; later whole IgG) VH: QVQLVESGGGVVQPGRSLRLSCAASGFTFSSYAMHWVRQAPGKGLEWVAVISYDGSNKYYADSVKGRFTISRDNSKNTLYLQMNSLRAEDTAVYYCARLMHTFSVQYFLDVWGQGTTVTVSS VL: QFVLTQSPSASGTPGQNIVISCSASTFNIGTTTVNWYQRLPGTAPKLLIYNYDQRPSGVPDRFSGSKSGTSASLAISGLQSEDEADYYCAAWDDSLNAWLFGGGTKLTVL	3.7

Entry PD1-45D6 (antibody, V domains shown, scFv-phage in the screening ELISA; whole IgG in the other assays) VH: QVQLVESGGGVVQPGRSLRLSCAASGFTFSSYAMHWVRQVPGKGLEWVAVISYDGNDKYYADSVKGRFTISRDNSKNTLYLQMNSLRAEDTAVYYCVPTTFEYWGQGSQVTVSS VL: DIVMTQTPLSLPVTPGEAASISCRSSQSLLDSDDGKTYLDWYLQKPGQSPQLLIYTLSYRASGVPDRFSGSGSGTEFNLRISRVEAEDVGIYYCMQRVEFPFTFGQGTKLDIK ; OD490 = 3.9
